assay overview: in vivo
condition parameters: male, FVB, mouse, in vivo, iv, 5 mg/kg
measure name: Vd (L/kg)
The reply should contain only the number, in L/kg.

Documented Vd of Cc1ccc(/C(=C\CN2CCCC2)c2ccccn2)cc1 : 2

---

target system: P-gp (mdr1a/1b) (Mus musculus)
assay overview: in vivo
condition parameters: male, FVB and mdr1a/1b KO, iv, 5 mg/kg
Kp overview
Simply state the number, no unit and no words.

- compound: "Cc1ccc(/C(=C\\CN2CCCC2)c2ccccn2)cc1 [Triprolidine]"
  Kp: 0.6

Documented Kp of OCCOCCN1CCN(C(c2ccccc2)c2ccc(Cl)cc2)CC1 (centres unmarked) [Hydroxyzine] : 1.2

---

assay overview: in vivo
condition parameters: male, FVB, mouse, in vivo, iv, 5 mg/kg
measure name: clearance (mL/min/kg)
The reply should contain only the number, in mL/min/kg.

Documented clearance of Cc1ccc(/C(=C\CN2CCCC2)c2ccccn2)cc1 [Triprolidine] : 119

---

assay overview: in vivo
condition parameters: male, mdr1a/1b KO, mouse, in vivo, iv, 5 mg/kg
measure name: half-life (min)
The reply should contain only the number, in min.

Documented half-life of Cc1ccc(/C(=C\CN2CCCC2)c2ccccn2)cc1 : 30

---

assay overview: in vivo
condition parameters: male, FVB and mdr1a/1b KO, mouse, plasma, iv, 5 mg/kg
measure name: Vd

Documented Vd of OCCOCCN1CCN(C(c2ccccc2)c2ccc(Cl)cc2)CC1 (stereo not shown) [Hydroxyzine] : 2.4 to 3.7 L/kg

---

assay overview: in vivo
condition parameters: male, mdr1a/1b KO, mouse, in vivo, iv, 5 mg/kg
measure name: clearance (mL/min/kg)
The reply should contain only the number, in mL/min/kg.

Documented clearance of Cc1ccc(/C(=C\CN2CCCC2)c2ccccn2)cc1 [Triprolidine] : 134

---

target system: MDR1 (P-gp) (Homo sapiens)
Sequence (P08183 whole entry): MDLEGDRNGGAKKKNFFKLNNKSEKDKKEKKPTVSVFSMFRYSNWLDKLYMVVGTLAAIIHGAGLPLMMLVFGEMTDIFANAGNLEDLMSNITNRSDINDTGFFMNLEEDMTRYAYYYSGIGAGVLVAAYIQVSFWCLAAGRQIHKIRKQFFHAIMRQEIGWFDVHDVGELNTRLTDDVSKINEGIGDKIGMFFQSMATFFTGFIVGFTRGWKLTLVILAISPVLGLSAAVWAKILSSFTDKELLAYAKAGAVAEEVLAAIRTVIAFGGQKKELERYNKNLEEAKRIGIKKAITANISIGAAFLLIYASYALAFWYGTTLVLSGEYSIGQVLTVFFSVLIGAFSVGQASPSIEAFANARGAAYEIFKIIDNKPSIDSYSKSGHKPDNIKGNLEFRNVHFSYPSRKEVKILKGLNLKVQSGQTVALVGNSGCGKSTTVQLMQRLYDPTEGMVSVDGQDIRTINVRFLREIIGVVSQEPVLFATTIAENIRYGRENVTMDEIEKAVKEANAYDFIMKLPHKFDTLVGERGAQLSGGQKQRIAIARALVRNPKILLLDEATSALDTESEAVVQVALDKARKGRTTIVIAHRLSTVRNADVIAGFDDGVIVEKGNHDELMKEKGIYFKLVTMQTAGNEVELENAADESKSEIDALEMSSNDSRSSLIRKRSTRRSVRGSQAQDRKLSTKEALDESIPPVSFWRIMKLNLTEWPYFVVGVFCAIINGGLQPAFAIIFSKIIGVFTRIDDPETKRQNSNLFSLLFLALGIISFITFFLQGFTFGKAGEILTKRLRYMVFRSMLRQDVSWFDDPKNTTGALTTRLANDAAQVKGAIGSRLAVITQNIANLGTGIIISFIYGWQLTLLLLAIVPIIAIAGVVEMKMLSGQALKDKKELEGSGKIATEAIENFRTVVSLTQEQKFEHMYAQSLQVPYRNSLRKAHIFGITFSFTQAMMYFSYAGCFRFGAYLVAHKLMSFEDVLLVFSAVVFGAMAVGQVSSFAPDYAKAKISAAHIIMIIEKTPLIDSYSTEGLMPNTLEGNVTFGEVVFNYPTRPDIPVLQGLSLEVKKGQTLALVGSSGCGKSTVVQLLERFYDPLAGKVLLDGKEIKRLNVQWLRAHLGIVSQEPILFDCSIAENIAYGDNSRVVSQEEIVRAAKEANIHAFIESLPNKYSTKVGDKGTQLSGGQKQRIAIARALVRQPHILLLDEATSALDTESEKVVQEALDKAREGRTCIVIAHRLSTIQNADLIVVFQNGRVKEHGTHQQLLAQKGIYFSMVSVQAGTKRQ
assay overview: in vitro
condition parameters: dog, MDCK-MDR1
measure name: Papp A→B at 5 hr, 2 μM (×10⁻⁶ cm/s)
The reply should contain only the number, in ×10⁻⁶ cm/s.

Documented Papp A→B at 5 hr, 2 μM of Cc1ccc(/C(=C\CN2CCCC2)c2ccccn2)cc1 [Triprolidine] : 25.9

---

assay overview: in vivo
condition parameters: male, mdr1a/1b KO, mouse, plasma, iv, 5 mg/kg
measure name: half-life (h)
The reply should contain only the number, in h.

Documented half-life of OCCOCCN1CCN(C(c2ccccc2)c2ccc(Cl)cc2)CC1 (stereo not shown) [Hydroxyzine] : 2.2

---

Kp overview
target system: P-gp (mdr1a/1b) (Mus musculus, UniProt P21447)
Sequence (P21447 whole entry): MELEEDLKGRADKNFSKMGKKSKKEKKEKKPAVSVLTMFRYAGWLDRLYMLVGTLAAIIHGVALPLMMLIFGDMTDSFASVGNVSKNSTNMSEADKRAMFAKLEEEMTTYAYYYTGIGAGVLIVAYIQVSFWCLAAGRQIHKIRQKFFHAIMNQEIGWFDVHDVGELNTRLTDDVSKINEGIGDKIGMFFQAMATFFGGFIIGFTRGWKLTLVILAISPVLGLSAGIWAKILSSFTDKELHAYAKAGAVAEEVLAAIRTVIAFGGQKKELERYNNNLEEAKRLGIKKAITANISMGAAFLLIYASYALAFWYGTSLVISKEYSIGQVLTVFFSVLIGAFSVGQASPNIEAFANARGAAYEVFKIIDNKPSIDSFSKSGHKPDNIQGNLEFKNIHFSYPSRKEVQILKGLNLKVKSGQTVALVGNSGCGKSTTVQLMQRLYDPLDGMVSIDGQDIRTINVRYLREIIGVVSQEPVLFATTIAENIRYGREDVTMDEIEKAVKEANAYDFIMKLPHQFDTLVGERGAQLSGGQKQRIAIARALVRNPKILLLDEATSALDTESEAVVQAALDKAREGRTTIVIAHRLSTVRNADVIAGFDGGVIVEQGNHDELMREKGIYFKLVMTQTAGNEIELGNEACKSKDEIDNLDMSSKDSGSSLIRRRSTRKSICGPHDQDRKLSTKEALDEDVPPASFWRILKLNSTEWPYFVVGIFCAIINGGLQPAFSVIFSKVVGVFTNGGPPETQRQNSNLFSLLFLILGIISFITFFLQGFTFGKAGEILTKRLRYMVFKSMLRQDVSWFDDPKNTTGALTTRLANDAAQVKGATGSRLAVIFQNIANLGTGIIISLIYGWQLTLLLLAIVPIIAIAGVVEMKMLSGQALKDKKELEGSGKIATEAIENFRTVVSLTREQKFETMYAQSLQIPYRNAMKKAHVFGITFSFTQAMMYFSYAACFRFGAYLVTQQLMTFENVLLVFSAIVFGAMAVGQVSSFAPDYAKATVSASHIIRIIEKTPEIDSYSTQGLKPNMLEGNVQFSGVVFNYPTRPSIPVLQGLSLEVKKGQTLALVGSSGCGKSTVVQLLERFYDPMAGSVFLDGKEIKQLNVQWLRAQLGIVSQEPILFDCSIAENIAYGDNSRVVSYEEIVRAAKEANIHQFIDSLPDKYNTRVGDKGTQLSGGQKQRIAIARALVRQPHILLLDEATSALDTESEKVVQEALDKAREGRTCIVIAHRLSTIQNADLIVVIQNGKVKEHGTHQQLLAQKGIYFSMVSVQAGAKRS
assay overview: in vivo
condition parameters: male, mdr1a/1b KO, iv, 5 mg/kg
Simply state the number, no unit and no words.

- molecule: "Cc1ccc(/C(=C\\CN2CCCC2)c2ccccn2)cc1 [Triprolidine]"
  target system: "P-gp (mdr1a/1b) (Mus musculus, UniProt P21447)"
  Kp: 3.5

Kindly consider the entry below.
Documented Kp of OCCOCCN1CCN(C(c2ccccc2)c2ccc(Cl)cc2)CC1 (centres unmarked) [Hydroxyzine] : 4.8

---

Kp overview
target system: P-gp (mdr1a/1b) (Mus musculus)
assay overview: in vivo
condition parameters: male, FVB, iv, 5 mg/kg
Simply state the number, no unit and no words.

- compound: "Cc1ccc(/C(=C\\CN2CCCC2)c2ccccn2)cc1"
  Kp: 6.2

Kindly consider the entry below.
Form field, Kp with P-gp (mdr1a/1b) (Mus musculus), item OCCOCCN1CCN(C(c2ccccc2)c2ccc(Cl)cc2)CC1 (centres unmarked) [Hydroxyzine] : 3.8

---

assay overview: in vivo
condition parameters: male, FVB and mdr1a/1b KO, mouse, in vivo, iv, 5 mg/kg
measure name: Vd

Documented Vd of Cc1ccc(/C(=C\CN2CCCC2)c2ccccn2)cc1 [Triprolidine] : ~2 L/kg

---

assay overview: in vivo
condition parameters: male, mdr1a/1b KO, mouse, plasma, iv, 5 mg/kg
measure name: Vd (L/kg)
The reply should contain only the number, in L/kg.

Documented Vd of OCCOCCN1CCN(C(c2ccccc2)c2ccc(Cl)cc2)CC1 (stereo not shown) [Hydroxyzine] : 2.4

---

assay overview: in vivo
condition parameters: male, mdr1a/1b KO, mouse, in vivo, iv, 5 mg/kg
measure name: Vd (L/kg)
The reply should contain only the number, in L/kg.

Documented Vd of Cc1ccc(/C(=C\CN2CCCC2)c2ccccn2)cc1 [Triprolidine] : 2.3

---

assay overview: in vivo
condition parameters: male, FVB, mouse, in vivo, iv, 5 mg/kg
measure name: half-life (min)
The reply should contain only the number, in min.

Documented half-life of Cc1ccc(/C(=C\CN2CCCC2)c2ccccn2)cc1 [Triprolidine] : 18

---

assay overview: in vivo
condition parameters: male, FVB, mouse, plasma, iv, 5 mg/kg
measure name: half-life (h)
The reply should contain only the number, in h.

Documented half-life of OCCOCCN1CCN(C(c2ccccc2)c2ccc(Cl)cc2)CC1 (stereo not shown) [Hydroxyzine] : 1.7

src = patent US20030144336A1
